Here the recorded apoptotic fraction of cells is given for each entry.
# Test system: WM115
# assay.info: apoptotic fraction of cells (caspase-3 NucView488 positive); higher = more apoptosis
# condition.description: 72 h; 0.0316 µM
outcome.measure: apoptotic fraction of cells

line.notation: CCCS(=O)(=O)Nc1ccc(F)c(C(=O)c2c[nH]c3ncc(Cl)cc23)c1F
experimental.value: 0.0268
//
line.notation: Cn1cnc2c(F)c(Nc3ccc(Br)cc3Cl)c(C(=O)NOCCO)cc21
experimental.value: 0.0324
//
line.notation: Cc1ccc(NC(=O)c2cccc(C(C)(C)C#N)c2)cc1Nc1ccc2ncn(C)c(=O)c2c1
experimental.value: 0.0418
//
line.notation: CN(C)CCOc1ccc(-c2nc(-c3ccncc3)c(-c3ccc4c(c3)CC/C4=N\O)[nH]2)cc1
experimental.value: 0.0346
//
line.notation: CCCS(=O)(=O)Nc1ccc(F)c(C(=O)c2c[nH]c3ncc(-c4ccc(Cl)cc4)cc23)c1F
experimental.value: 0.0317

* * *

Here the recorded relative viability is given for each entry.
# Test system: COLO858
# assay.info: relative viability (cell count relative to DMSO-treated control) (fraction of DMSO control); higher = more viable cells / less drug effect
# condition.description: 24 h; 0.01 µM
outcome.measure: relative viability

line.notation: CCCS(=O)(=O)Nc1ccc(F)c(C(=O)c2c[nH]c3ncc(-c4ccc(Cl)cc4)cc23)c1F
experimental.value: 1.02

line.notation: Cn1cnc2c(F)c(Nc3ccc(Br)cc3Cl)c(C(=O)NOCCO)cc21
experimental.value: 1.09

line.notation: CN(C)CCOc1ccc(-c2nc(-c3ccncc3)c(-c3ccc4c(c3)CC/C4=N\O)[nH]2)cc1
experimental.value: 1.21

line.notation: Cc1ccc(NC(=O)c2cccc(C(C)(C)C#N)c2)cc1Nc1ccc2ncn(C)c(=O)c2c1
experimental.value: 1.12

line.notation: CCCS(=O)(=O)Nc1ccc(F)c(C(=O)c2c[nH]c3ncc(Cl)cc23)c1F
experimental.value: 1.15

* * *

# Tested on: WM1552C
# assay.info: apoptotic fraction of cells (caspase-3 NucView488 positive); higher = more apoptosis
# condition.description: 24 h; 0.00316 µM
outcome.measure: apoptotic fraction of cells

line.notation: CCCS(=O)(=O)Nc1ccc(F)c(C(=O)c2c[nH]c3ncc(Cl)cc23)c1F
outcome.measure: apoptotic fraction of cells
experimental.value: 0.0609

line.notation: CN(C)CCOc1ccc(-c2nc(-c3ccncc3)c(-c3ccc4c(c3)CC/C4=N\O)[nH]2)cc1
outcome.measure: apoptotic fraction of cells
experimental.value: 0.059

line.notation: Cn1cnc2c(F)c(Nc3ccc(Br)cc3Cl)c(C(=O)NOCCO)cc21
outcome.measure: apoptotic fraction of cells
experimental.value: 0.0571

line.notation: CCCS(=O)(=O)Nc1ccc(F)c(C(=O)c2c[nH]c3ncc(-c4ccc(Cl)cc4)cc23)c1F
outcome.measure: apoptotic fraction of cells
experimental.value: 0.0617

line.notation: Cc1ccc(NC(=O)c2cccc(C(C)(C)C#N)c2)cc1Nc1ccc2ncn(C)c(=O)c2c1
outcome.measure: apoptotic fraction of cells
experimental.value: 0.0672

* * *

# System: MMACSF
# assay.info: relative viability (cell count relative to DMSO-treated control) (fraction of DMSO control); higher = more viable cells / less drug effect
# condition.description: 72 h; 3.16 µM
outcome.measure: relative viability

line.notation: Cc1ccc(NC(=O)c2cccc(C(C)(C)C#N)c2)cc1Nc1ccc2ncn(C)c(=O)c2c1
outcome.measure: relative viability
experimental.value: 0.141
--
line.notation: Cn1cnc2c(F)c(Nc3ccc(Br)cc3Cl)c(C(=O)NOCCO)cc21
outcome.measure: relative viability
experimental.value: 0.141
--
line.notation: CCCS(=O)(=O)Nc1ccc(F)c(C(=O)c2c[nH]c3ncc(Cl)cc23)c1F
outcome.measure: relative viability
experimental.value: 0.146
--
line.notation: CCCS(=O)(=O)Nc1ccc(F)c(C(=O)c2c[nH]c3ncc(-c4ccc(Cl)cc4)cc23)c1F
outcome.measure: relative viability
experimental.value: 0.0882
--
line.notation: CN(C)CCOc1ccc(-c2nc(-c3ccncc3)c(-c3ccc4c(c3)CC/C4=N\O)[nH]2)cc1
outcome.measure: relative viability
experimental.value: 0.341

* * *

# Tested on: COLO858
# assay.info: apoptotic fraction of cells (caspase-3 NucView488 positive); higher = more apoptosis
# condition.description: 72 h; 0.00316 µM
Decision: apoptotic fraction of cells >= 0.09 yields yes (1), all other cases yield no (0).

line.notation: CN(C)CCOc1ccc(-c2nc(-c3ccncc3)c(-c3ccc4c(c3)CC/C4=N\O)[nH]2)cc1
class.assignment: no (0)

line.notation: Cc1ccc(NC(=O)c2cccc(C(C)(C)C#N)c2)cc1Nc1ccc2ncn(C)c(=O)c2c1
class.assignment: no (0)

line.notation: Cn1cnc2c(F)c(Nc3ccc(Br)cc3Cl)c(C(=O)NOCCO)cc21
class.assignment: yes (1)

* * *

# Tested on: C32
# assay.info: apoptotic fraction of cells (caspase-3 NucView488 positive); higher = more apoptosis
# condition.description: 24 h; 3.16 µM
Decision: apoptotic fraction of cells >= 0.3 yields MET, all other cases yield NOT MET.

compound: Cn1cnc2c(F)c(Nc3ccc(Br)cc3Cl)c(C(=O)NOCCO)cc21 [Selumetinib]
class.assignment: NOT MET
//
compound: Cc1ccc(NC(=O)c2cccc(C(C)(C)C#N)c2)cc1Nc1ccc2ncn(C)c(=O)c2c1 [AZ628]
class.assignment: NOT MET
//
compound: CCCS(=O)(=O)Nc1ccc(F)c(C(=O)c2c[nH]c3ncc(Cl)cc23)c1F [PLX4720]
class.assignment: NOT MET
//
compound: CN(C)CCOc1ccc(-c2nc(-c3ccncc3)c(-c3ccc4c(c3)CC/C4=N\O)[nH]2)cc1
class.assignment: NOT MET
//
compound: CCCS(=O)(=O)Nc1ccc(F)c(C(=O)c2c[nH]c3ncc(-c4ccc(Cl)cc4)cc23)c1F [Vemurafenib]
class.assignment: MET

* * *

# Tested on: WM1552C
# assay.info: relative viability (cell count relative to DMSO-treated control) (fraction of DMSO control); higher = more viable cells / less drug effect
# condition.description: 48 h; 0.0316 µM
outcome.measure: relative viability

line.notation: Cc1ccc(NC(=O)c2cccc(C(C)(C)C#N)c2)cc1Nc1ccc2ncn(C)c(=O)c2c1
tested.target: WM1552C
experimental.value: 0.964
--
line.notation: CN(C)CCOc1ccc(-c2nc(-c3ccncc3)c(-c3ccc4c(c3)CC/C4=N\O)[nH]2)cc1
tested.target: WM1552C
experimental.value: 0.994
--
line.notation: CCCS(=O)(=O)Nc1ccc(F)c(C(=O)c2c[nH]c3ncc(-c4ccc(Cl)cc4)cc23)c1F
tested.target: WM1552C
experimental.value: 1.01
--
line.notation: Cn1cnc2c(F)c(Nc3ccc(Br)cc3Cl)c(C(=O)NOCCO)cc21
tested.target: WM1552C
experimental.value: 0.956
--
line.notation: CCCS(=O)(=O)Nc1ccc(F)c(C(=O)c2c[nH]c3ncc(Cl)cc23)c1F
tested.target: WM1552C
experimental.value: 1.01

* * *

Here the recorded apoptotic fraction of cells is given for each entry.
# Test system: C32
# assay.info: apoptotic fraction of cells (caspase-3 NucView488 positive); higher = more apoptosis
# condition.description: 72 h; 0.1 µM

line.notation: CCCS(=O)(=O)Nc1ccc(F)c(C(=O)c2c[nH]c3ncc(-c4ccc(Cl)cc4)cc23)c1F
apoptotic fraction of cells: 0.061

line.notation: CN(C)CCOc1ccc(-c2nc(-c3ccncc3)c(-c3ccc4c(c3)CC/C4=N\O)[nH]2)cc1
apoptotic fraction of cells: 0.0807

line.notation: CCCS(=O)(=O)Nc1ccc(F)c(C(=O)c2c[nH]c3ncc(Cl)cc23)c1F
apoptotic fraction of cells: 0.0354

line.notation: Cc1ccc(NC(=O)c2cccc(C(C)(C)C#N)c2)cc1Nc1ccc2ncn(C)c(=O)c2c1
apoptotic fraction of cells: 0.301

line.notation: Cn1cnc2c(F)c(Nc3ccc(Br)cc3Cl)c(C(=O)NOCCO)cc21
apoptotic fraction of cells: 0.108

* * *

# System: COLO858
# assay.info: relative viability (cell count relative to DMSO-treated control) (fraction of DMSO control); higher = more viable cells / less drug effect
# condition.description: 24 h; 0.00316 µM
outcome.measure: relative viability

line.notation: CCCS(=O)(=O)Nc1ccc(F)c(C(=O)c2c[nH]c3ncc(Cl)cc23)c1F
outcome.measure: relative viability
experimental.value: 1.03
--
line.notation: CCCS(=O)(=O)Nc1ccc(F)c(C(=O)c2c[nH]c3ncc(-c4ccc(Cl)cc4)cc23)c1F
outcome.measure: relative viability
experimental.value: 0.782
--
line.notation: Cc1ccc(NC(=O)c2cccc(C(C)(C)C#N)c2)cc1Nc1ccc2ncn(C)c(=O)c2c1
outcome.measure: relative viability
experimental.value: 0.923
--
line.notation: Cn1cnc2c(F)c(Nc3ccc(Br)cc3Cl)c(C(=O)NOCCO)cc21
outcome.measure: relative viability
experimental.value: 0.844
--
line.notation: CN(C)CCOc1ccc(-c2nc(-c3ccncc3)c(-c3ccc4c(c3)CC/C4=N\O)[nH]2)cc1
outcome.measure: relative viability
experimental.value: 0.866
